A set of molecules tested on H1 histamine receptor (Bos taurus, UniProt P30546), with measured Ki:
outcome.measure: Ki (nM)

                                   molecule                                       tgt  unit  observed
0  O=C(O)C1(CN2CCN(C3=Nc4ccccc4Oc4ccccc43)CC2)CC1 [Compound 2]  H1 histamine receptor (Bos taurus, UniProt P30546)    nM      51.4

I = Cc1ccc2c(c1)C(N1CCN(CC(C)(C)C(=O)O)CC1)=Nc1ccccc1O2 [Compound 10]
II = COc1ccc2c(c1)N=C(N1CCN(CC(C)(C)C(=O)O)CC1)c1cc(C)ccc1O2 [Compound 56]
Please compare: I and II . Report which one has the smaller Ki value. Write down the label attached to your selection.
I
(I: 39.6 nM, II: 117 nM)
